Test system: SPNE 9912
Experiment: In vitro MIC by standard agar dilution method, SPNE 9912
Type: cell-based
Recorded conditions: agar dilution, Mueller Hinton agar, incubated overnight at 35° C.; lowest concentration that inhibits visible growth; read-out: SPNE 9912 MIC (Minimum Inhibitory Concentration)
Structures can show the parent of a compound that is named as a salt.
Quantity name: MIC (µg/mL)

# Compound, Observed result
records = [
    ("CC(=O)NC[C@H]1CN(c2ccc(N3CCN(C(=O)CCCC#Cc4ccc(CN)cc4)CC3)c(F)c2)C(=O)O1 [Compound 26]", 0.25),
    ("CC(=O)NC[C@H]1CN(c2ccc(N3CCN(C(=O)CCCC#Cc4ccc(/C(N)=N/O)cc4)CC3)c(F)c2)C(=O)O1.Cl [Compound 12]", 2),
    ("CC(=O)NC[C@H]1CN(c2ccc(N3CCN(C(=O)CCCC#Cc4ccc(/C(C)=N/O)cc4)CC3)c(F)c2)C(=O)O1 [Compound 15, HCl salt]", 2),
    ("CC(=O)NC[C@H]1CN(c2ccc(N3CCN(C(=O)CCC#Cc4c[nH]c(=O)[nH]c4=O)CC3)c(F)c2)C(=O)O1 [Compound 22]", 4),
    ("CC(=O)NC[C@H]1CN(c2ccc(N3CCN(C(=O)CCCC#Cc4ccc(O)cc4)CC3)c(F)c2)C(=O)O1 [Compound 7]", 1),
    ("CC(=O)NC[C@H]1CN(c2ccc(N3CCN(C(=O)CCCC#Cc4cccc(CN)c4)CC3)c(F)c2)C(=O)O1 [Compound 6]", 1),
    ("CNCc1ccc(C#CCCCC(=O)N2CCN(c3ccc(N4C[C@H](CNC(C)=O)OC4=O)cc3F)CC2)cc1 [Compound 19]", 0.25),
    ("CC(=O)NC[C@H]1CN(c2ccc(N3CCN(C(=O)CCCC#Cc4cccc(O)c4)CC3)c(F)c2)C(=O)O1 [Compound 27]", 1),
    ("CC(=O)NC[C@H]1CN(c2ccc(N3CCN(CC#Cc4ccccc4)CC3)c(F)c2)C(=O)O1 [Compound 9]", 2),
    ("CC(=O)NC[C@H]1CN(c2cc(F)c(N3CCN(C(=O)CCCC#Cc4cccc(CN)c4)CC3)c(F)c2F)C(=O)O1 [Compound 11]", 2),
    ("CC(=O)NC[C@H]1CN(c2ccc(N3CCN(C(=O)CCC#Cc4ccc(N)cc4)CC3)c(F)c2)C(=O)O1 [Compound 20]", 2),
    ("CC(=O)NC[C@H]1CN(c2ccc(N3CCN(C(=O)CCCCC#Cc4cccc(CN)c4)CC3)c(F)c2)C(=O)O1 [Compound 32]", 2),
    ("CC(=O)NC[C@H]1CN(c2ccc(N3CCN(C(=O)CCCCC#Cc4ccc(O)cc4)CC3)c(F)c2)C(=O)O1 [Compound 24]", 2),
    ("CC(=O)NC[C@H]1CN(c2ccc(N3CCN(C(=O)CCC#Cc4cccc(CN)c4)CC3)c(F)c2)C(=O)O1 [Compound 33]", 1),
]
